Tested on: PPARg:RXRa 90nM:30nM, anti-RXR (NR concentration 90 nM, RXRa partner concentration 30 nM)
Experiment: PBM binding z-score (relative to random genomic background probes); higher = stronger binding; sequences stand for … in GC…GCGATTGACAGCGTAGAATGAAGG
MEASURED_PROPERTY: PBM binding z-score
Please reply with the number alone, leaving off any unit.

Some sequences with known PBM binding z-score results, for comparison:
CCAGACAGGTGAAAGGTAAATCAGTCTGGTACGC | 6.32
ACTATTAGTTGAGACGAGGGCGACCGATAGGTTG | -0.0518
TTACCAAGGTGAGCTGAGGTCGTTGACCCAACTC | 0.348
GGAACGAGGGCAAGTTGATCGCAGAGTTTGATGG | 0.517

Read the next record carefully.
Exercise: GET /values?readout=PBM binding z-score&system=PPARg:RXRa 90nM:30nM, anti-RXR (NR concentration 90 nM, RXRa partner concentration 30 nM)&item= AGAATGAGGTTACCAAAGATCAGGGCAACGCTTG
Key: 2.34
